test: Toxicity assessed as hemolysis of human erythrocytes at 500 ug/mL; format: cell-based, Erythrocyte; conditions: read-out: Activity
Parameter: hemolysis at 500 ug/mL
In your response, the unit should come after the numeric value.

Documented hemolysis at 500 ug/mL of `CCCCc1ccc(-c2ccc(C[C@H](NC(=O)[C@@H](N)CCCNC(=N)N)C(=O)N[C@@H](CCCNC(=N)N)C(N)=O)cc2)cc1` : 40%

---

assay: Toxicity assessed as hemolysis of human erythrocytes; assay type: cell-based, Erythrocyte
Parameter: EC50 (µg/mL)
Write it as a number; the unit µg/mL goes unstated.

The compound listed as `N=C(N)NCCC[C@H](NC(=O)[C@H](Cc1ccc(-c2ccc(-c3ccccc3)cc2)cc1)NC(=O)[C@@H](N)CCCNC(=N)N)C(N)=O` shows EC50 equal to 420
